# reported apparent KD of MS2 coat protein; entries follow
# Test system: MS2 coat protein
# Method Notes: apparent KD of MS2 coat protein; designed switch direction (-1 OFF switch, 1 ON switch): -1; higher = weaker reporter binding
# Condition Notes: input ligand: none
Number first, unit second: that is the form wanted.

INSERT INTO measurements (seq_text, property_measured, recorded_measurement) VALUES
  ('GAAUAGCGAGGAUAUACAUGAGGAUCACCCAUGUGAUCCUUAGGCUGUUCAAGCCUAUGUAGAAGGCGCAAAUU [jl-ex3.4.56 ViennaUCT mod] (Eterna round: R97, puzzle: Exclusion 3)', 'apparent KD of MS2 coat protein', '335 nM'),
  ('GGAAGGCGAGGAUAUGCAAUAAUACACUCGAAGGAGUGAUAACAUGAGGAUCACCCAUGUAGAAGGCGCGAGAA [AK-MS2ROC-r4-exclusion2-6] (Eterna round: R97, puzzle: Exclusion 2)', 'apparent KD of MS2 coat protein', '36.1 nM');

What apparent KD of MS2 coat protein value was documented for this sequence, GGUCAUCAAGUCAGGAUAUCGUCAAAUCAAUCAGGCGAGAAGGGACAUGAGGAUCACCCAUGUCGACUCAUCAG [Ex4 #5] (Eterna round: R97, puzzle: Brourd's mod of Exclusion 4) ? 34.3 nM

What apparent KD of MS2 coat protein value was documented for this sequence, AGGUGCUUCUGGAAACAUGAGGAUCACCCAUGUUGAGUUAGCGAGGAUAUCGGUAACCAUUGUUAUGAGAAGGCGCAAACCAGA [Ex NG3 #37] (Eterna round: R96, puzzle: Exclusion NG 3) ? 20.2 nM

What apparent KD of MS2 coat protein value was documented for this sequence, UGGGUACAUGAGGAUCACCCAUGUGAGGAUAUGCCGGAAGAAUCGCAGAAAUGAGCCAGUAGAAGGCACAAGGG [Eternabot (L2) Solution 100] (Eterna round: R97, puzzle: Exclusion 1) ? 1190 nM

What apparent KD of MS2 coat protein value was documented for this sequence, GUCGUACAUGAGGAUCACCCAUGUGAGGAUAUAGGUAGCAACCAGAAAUGGUUGCUACCUAGAAGGCGCAUGAU [Malcxlusion 10 - Jieux - Exclusion 1] (Eterna round: R97, puzzle: Exclusion 1) ? 104 nM

What apparent KD of MS2 coat protein value was documented for this sequence, GUAAACGAAGAGGAUAUUUGAUAUCAAAGCUUCAAAGAAGGCUUCACAUGAGGAUCACCCAUGUGAUCUUCAAG [Mat - Exclusion 6 - JL Mod - D17] (Eterna round: R97, puzzle: Exclusion 6) ? 28.4 nM

What apparent KD of MS2 coat protein value was documented for this sequence, AAGAAACAUGAGGAUCACCCAUGUGAGGAUAUGGCCCGCCCGGCGUGAGCUGGUUUUGUCAGAAGGCGCAAAGG [salish99_ex1_r4_018] (Eterna round: R97, puzzle: Exclusion 1) ? 50.8 nM

What apparent KD of MS2 coat protein value was documented for this sequence, UGAUCUAGCGGAGGAUAUACAUGAGGAUCACCCAUGUAGAUAACUGCACCGUAGUGUAGUAUUGUGUAGAAGGCCGCUAGAUCU [JL ENG2 3.65] (Eterna round: R96, puzzle: Exclusion NG 2) ? 14.2 nM

What apparent KD of MS2 coat protein value was documented for this sequence, UUUUGACAAGCGAGAUCCUACAUGAGGAUCACCCAUGUUGACCAUGGUUUCCAUGGUCUUUUUGCUCGUCUUGUGUG [jl TITIN mod 4] (Eterna round: R97, puzzle: Sensor, turn-off variant 1) ? 21.8 nM

###

# System: MS2 coat protein
# Method Notes: apparent KD of MS2 coat protein; designed switch direction (-1 OFF switch, 1 ON switch): -1; higher = weaker reporter binding
# Condition Notes: Eterna round: R95; input ligand: microRNA oligo, concentration not stated
Measured apparent KD of MS2 coat protein determines class: zone 1 = under 30 nM, zone 2 = from 30 nM up to 50 nM, zone 3 = 50 nM and over

Worked set:
INSERT INTO assay_data (seq_text, label_value) VALUES
  ('CUUUAGUAAGGAUAUCAGCUUAGGAGGUUGGUAAUGAGAGCUGAGAAGGUACAUGAGGAUCACCCAUGUUAGUU [JL Zatite mod 9] (puzzle: Exclusion 4)', 'zone 1'),
  ('UUUAUGUCAGGAUAUGAGUAGUAGAACAAUAGUACUACUACUCAGAAGGGACAUGAGGAUCACCCAUGUUCCUC [Fiskers Ex 4 Super stable 44 mod 20] (puzzle: Exclusion 4)', 'zone 1'),
  ('GGUACUAACACGAUAGUGUUAGUACUAUAAGCUUGUGUUACAUGAGGAUCACCCAUGUCCUCAUAAGCUCGUCUUGU [Mat - Sensor v3 - Turn-off var 2 - D89] (puzzle: Sensor v3, turn-off variant 2)', 'zone 3');

GET /class?item= ACGUGAUAUCUGUCGUUGGACAUGAGGAUCACCCAUGUAAGCUUUUUGCUCGUCUUAUAACCCGGUGACAGACCUUC [Dienlave] (puzzle: Sensor v3, turn-off variant 1) zone 3

GET /class?item= GGUGAGAGCAAGGAUAUGCAGAAGUGAGAAAGUGCAGAAGGUGCUACAUGAGGAUCACCCAUGUUGGAUGUGUU [JR_E6_Sub015] (puzzle: Exclusion 6) zone 2

###

# Tested on: MS2 coat protein
# Method Notes: apparent KD of MS2 coat protein; designed switch direction (-1 OFF switch, 1 ON switch): -1; higher = weaker reporter binding
# Condition Notes: input ligand: microRNA oligo, concentration not stated
Property Measured: apparent KD of MS2 coat protein (nM)
# number only, unit nM dropped from output

Previously resolved entries follow.
INSERT INTO results (seq_text, target_desc, units_text, recorded_measurement) VALUES
  ('AUUGUUUGAUACCUUUAAUACAUGAGGAUCACCCAUGUUAUCGAGGAUAUGUAGAAGAGAUGAGAACAGAAGGCGAAGUAAGAG [JR_ExcNG3_Sub096] (Eterna round: R96, puzzle: Exclusion NG 3)', 'MS2 coat protein', 'nM', 11.1),
  ('AGUACUAUCACGAAAGUGUUAGUACAAUAAGCUUGUGAAACAUGAGGAUCACCCAUGUCCUCAUAAGCUCGUCUUAU [salish99_TOv2_r3_019] (Eterna round: R96, puzzle: Sensor v3, turn-off variant 2)', 'MS2 coat protein', 'nM', 467),
  ('AAAAGAAAACGAGGAUAUGCGCGUAACGUACAUCCUCUAGACAUGAGGAUCACCCAUGUAGCGCAGCAGAAGGCGUAAAAGAAA [Orises] (Eterna round: R96, puzzle: Exclusion NG 2)', 'MS2 coat protein', 'nM', 75),
  ('CCCAGUUAUUGAGGAUAUUGUACAUGAGGAUCACCCAUGUAAUAAAUGAGGAUUUCGGGUGUCUACAAGAAGGCAAGGAUAGGC [Ostracism 20 - Jieux - Exclusion NG 2] (Eterna round: R96, puzzle: Exclusion NG 2)', 'MS2 coat protein', 'nM', 46.1),
  ('ACAUGAGGAUCACCCAUGUGACAAUAAUGGCUGAUACAGAGACAGGAUAUACGUGAAUAUCUAACGUAGAAGGGUCAUGACUGG [Deportation 70 - Jieux - Exclusion NG 3] (Eterna round: R96, puzzle: Exclusion NG 3)', 'MS2 coat protein', 'nM', 35.8),
  ('ACAUGAGGAUCACCCAUGUCUGGCUGGUCCGUCUCGGCUGUCGAGGAUAUGGCUCGGUGUCCGCGCUAGAAGGCGGGAGCUGGA [Aenatbe mod 78] (Eterna round: R96, puzzle: Exclusion NG 3)', 'MS2 coat protein', 'nM', 43),
  ('UGUCAGAUGGUAGGAUAUCCGUAUCGCGUGUCCCUUUCCUAACAUGAGGAUCACCCAUGUCGGUGGGAGAAGGGCCGUAUGGUG [salish99_ExNG02_R04_037] (Eterna round: R96, puzzle: Exclusion NG 2)', 'MS2 coat protein', 'nM', 10.6),
  ('GGCCGUUUUCGGCCCGGGCGGGCCACAUGAGGAUCACCCAUGUAGGAUAUCGCCGGGUUUCCCGGCGAGAAGGGCAGGGCCCGC [first try] (Eterna round: R96, puzzle: Exclusion NG 3)', 'MS2 coat protein', 'nM', 13.7);

What apparent KD of MS2 coat protein value was documented for this sequence, GCAGCAACUCUAAUCAAAUCAACAUGAGGAUCACCCAUGUCUCAGGAUAUGGUCUGGAUUACAGGCCAGAAGGGAGAAAGCUGC [Eli exng3 - 048] (Eterna round: R96, puzzle: Exclusion NG 3) ? 13.9

###

# System: K4 kissing-loop RNA reporter;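 also: bound reporter read as fluorescence of individual clusters on recovered sequencing chips by microscopy, with normalized cluster intensities fitted with a binding model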
# Method Notes: apparent KD of K4 kissing-loop reporter; higher = weaker reporter binding
# Condition Notes: Eterna round: R107; input ligand: tryptophan 2.4 mM
# reported apparent KD of K4 kissing-loop reporter; entries follow
# number only, unit nM dropped from output

INSERT INTO measurements (seq_text, property_measured, units_text, recorded_measurement) VALUES
  ('CAACAUCACAACUUCUUCGUCCUAGAAGACUAGGAUAUCAGGAAACUGAGAAGGAGUCUCUGCAGUGAUGUUGCAGCUAGGACGA [[K]''-[F2]''-[F1]''-[F1]-[F2]-[K1]-[K2]-[F]''''_Design2b]', 'apparent KD of K4 kissing-loop reporter', 'nM', 219),
  ('CGAGAAAGAGCGACUGGCGAUCUGUCUGAAGGAGCGGGUGCUAGCCCAGGUAGGUCGCAGACCUUGACGCCAGUGAUGUUGGCGG [Ritiatso]', 'apparent KD of K4 kissing-loop reporter', 'nM', 177);

Request body: readout apparent KD of K4 kissing-loop reporter, system K4 kissing-loop RNA reporter, query UGGAGUUGACGAAAAGUCAACUCCUGAGAAGGAGCGGACGAAAGUCCAGGUAGGUCGCUCACUACCAGUGAUGUUGGUACUGAAA . Return the value. 164

Request body: readout apparent KD of K4 kissing-loop reporter, system K4 kissing-loop RNA reporter, query AAUUCUCUUUUUGAUACCAGCGAAUCUGAGUGAUGUUCUAAGCCAUACAAUUGAGUAAAUCGCCCUUGGCAGCAAUUCGUGGGUG [theeternabot_exclusion_KL_Theo_B_20] . Return the value. 567

Request body: readout apparent KD of K4 kissing-loop reporter, system K4 kissing-loop RNA reporter, query UAGUCAUACAGAGGAUAUCGUAUGAGUGAUGUUCAUAUGCGUACAUCAACUUGAUGUACACCUAGACGAGAAGGCUGUAUGACUA [FMB B SS t6a] . Return the value. 227

Request body: readout apparent KD of K4 kissing-loop reporter, system K4 kissing-loop RNA reporter, query CCUAUCUCGUAGGAUACCAGACUAUGAUCUAUGAUCAAUGCCAUCACCGAGUGAUGUUCGGUCCCUUGGCAGCCUAUGAGAUGGG [#13 K4 Theophylline B Exclusion] . Return the value. 154
